Tested on: Plasmodium berghei
Assay: Screen against P. berghei liver stage (PbLuc), transformed with Luciferase, at 10uM
Format: functional, HepG2
Settings: tested at 10 uM
Hit rate of the full screen: of about 69,000 compounds, about 8,600 (12%) showed an effect of 50% or more. This excerpt belongs to a sample that is enriched for strong results.

{"columns": ["COMPOUND", "READING_UNIT", "INHIBITION"],
 "data": [
  ["CN(C)CCN1C(=O)CCCC12CCCN(C(=O)c1ccncc1)C2 (stereo unspecified)", "%", 5.68],
  ["CC(C)N(C)C[C@H]1C[C@@H]2CN(Cc3ccco3)C[C@@H]2O1", "%", 8.74],
  ["Cc1nsc(NC(=O)N2CCc3sccc3C2)n1", "%", 24.1],
  ["CCN(CC1=CCN(C)CC1)C(=O)CCOC", "%", 29.5],
  ["Cn1nc(CN2CCOCC2)c2c1CN(Cc1ccsc1)C2", "%", 8.03],
  ["Cc1ccc(CN(C)c2cc(N3CCCC3CO)ncn2)s1 (stereo unspecified)", "%", -21.4]
]}

====

Recorded INHIBITION for the following compounds
Test system: Plasmodium berghei
Test: Screen against P. berghei liver stage (PbLuc), transformed with Luciferase, at 10uM
Format: functional, HepG2
Details: tested at 10 uM
Out of some 69,000 compounds screened, about 8,600 (12%) showed an effect of 50% or more. Many of the other results were omitted from the sample, so strong results are more common in it than they were.
METRIC: INHIBITION (%)

{"columns": ["COMPOUND", "TARGET_DESC", "READING_UNIT", "OBSERVED_RESULT"],
 "data": [
  ["COc1ccc(CN2CCC3(CC2)CCN(CC2CC2)C3=O)cc1", "Plasmodium berghei", "%", 52.4],
  ["Cc1occc1C(=O)N1CCCC2(CCN(c3ccccc3)C2=O)C1 (configuration not stated)", "Plasmodium berghei", "%", -54.5],
  ["CC(C)N(C(=O)N1CCn2cncc2C1)C(C)C", "Plasmodium berghei", "%", 52.2],
  ["CCOC1CCN(C(=O)NCCc2ccn(-c3ccccc3)n2)CC1", "Plasmodium berghei", "%", -10.1],
  ["Cc1occc1C(=O)N1CCCC2(CCN(c3ccsc3)C2=O)C1 (configuration not stated)", "Plasmodium berghei", "%", 56.7],
  ["O=C1N(c2ccsc2)CCC12CCCN(Cc1ccccn1)C2 (configuration not stated)", "Plasmodium berghei", "%", -6.23],
  ["CCCN(C)S(=O)(=O)N1CCCC1c1ccco1 (configuration not stated)", "Plasmodium berghei", "%", 10.47],
  ["CC(C(=O)N1CCn2cncc2C1)N1CCCC1 (configuration not stated)", "Plasmodium berghei", "%", 47.9],
  ["O=C1N(c2ccsc2)CCC12CCCN(CC1CC1)C2 (configuration not stated)", "Plasmodium berghei", "%", 57.9],
  ["CCOC(=O)c1cccc(N2CCCC3(CCC(=O)N(C4CC4)C3)C2)n1 (configuration not stated)", "Plasmodium berghei", "%", 28.7],
  ["CC(=O)NC(C(=O)N1CCn2cncc2C1)C(C)C (configuration not stated)", "Plasmodium berghei", "%", 29.8],
  ["COc1ccc(CN2CCC3(CC2)CCN(CC(=O)N(C)C)C3=O)cc1", "Plasmodium berghei", "%", -8.51]
]}

Each recorded value in this set is attributed to ChEMBL document CHEMBL4513216.
